methodNotes: self-splicing fitness, log relative to wild type (ln ratio); higher = more splicing; Tetrahymena group I intron in knt gene, E. coli kanamycin selection, DiMSum; sequences stand for … in CUCUCU…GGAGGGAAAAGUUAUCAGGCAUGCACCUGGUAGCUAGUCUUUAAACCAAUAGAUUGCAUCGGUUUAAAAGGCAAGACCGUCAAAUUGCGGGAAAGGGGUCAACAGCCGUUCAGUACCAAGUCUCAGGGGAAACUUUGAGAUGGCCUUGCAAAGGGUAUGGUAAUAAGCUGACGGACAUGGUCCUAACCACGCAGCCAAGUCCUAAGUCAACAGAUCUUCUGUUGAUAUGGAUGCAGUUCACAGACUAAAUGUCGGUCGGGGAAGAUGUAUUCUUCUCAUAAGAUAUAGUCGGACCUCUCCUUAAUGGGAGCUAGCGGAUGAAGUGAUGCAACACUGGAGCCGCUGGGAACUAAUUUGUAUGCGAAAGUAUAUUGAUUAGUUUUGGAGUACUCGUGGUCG;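 also: selection with 25 µg/mL kanamycin versus none on LB agar overnight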
setupConditions: 30 °C
Entry flag: rule met if self-splicing fitness (ln) reaches -2; rule not met if it does not.

Could you verify whether the entry ACAGAGCAAUAUUACGCCAG shows self-splicing fitness (ln) of no less than -2?
rule not met

Could you verify whether the entry AUACAGCAAUAUUACGUACG shows self-splicing fitness (ln) of no less than -2?
rule met

Could you verify whether the entry AUAUAGCAAUAUUACGCAAA shows self-splicing fitness (ln) of no less than -2?
rule met

Could you verify whether the entry AGGUAGCAAUAUUACGUCCU shows self-splicing fitness (ln) of no less than -2?
rule not met

Could you verify whether the entry CGUCAGCAAUAUUACGGGAC shows self-splicing fitness (ln) of no less than -2?
rule not met

Could you verify whether the entry UUAUAGCAAUAUUACGUCAG shows self-splicing fitness (ln) of no less than -2?
rule met

Could you verify whether the entry AGAAAGCAAUAUUACGCUAC shows self-splicing fitness (ln) of no less than -2?
rule not met

Could you verify whether the entry AUUAAGCAAUAUUACGGUUC shows self-splicing fitness (ln) of no less than -2?
rule not met

Could you verify whether the entry ACGUAGCAAUAUUACGUCAU shows self-splicing fitness (ln) of no less than -2?
rule not met

Could you verify whether the entry AUACAGCAAUAUUACGAAAA shows self-splicing fitness (ln) of no less than -2?
rule not met

Could you verify whether the entry AUUGAGCAAUAUUACGAGCA shows self-splicing fitness (ln) of no less than -2?
rule not met

Could you verify whether the entry CAGCAGCAAUAUUACGUUGU shows self-splicing fitness (ln) of no less than -2?
rule not met

Could you verify whether the entry AGGGAGCAAUAUUACGUCUC shows self-splicing fitness (ln) of no less than -2?
rule met

Could you verify whether the entry GCAAAGCAAUAUUACGUUGA shows self-splicing fitness (ln) of no less than -2?
rule met

Could you verify whether the entry ACGGAGCAAUAUUACGUUAG shows self-splicing fitness (ln) of no less than -2?
rule not met

Could you verify whether the entry GUUAAGCAAUAUUACGUGUG shows self-splicing fitness (ln) of no less than -2?
rule met

Could you verify whether the entry GACCAGCAAUAUUACGACCC shows self-splicing fitness (ln) of no less than -2?
rule met

Could you verify whether the entry UGCUAGCAAUAUUACGCUCG shows self-splicing fitness (ln) of no less than -2?
rule met

Could you verify whether the entry UCUGAGCAAUAUUACGGCUG shows self-splicing fitness (ln) of no less than -2?
rule not met

Could you verify whether the entry AAACAGCAAUAUUACGUUUG shows self-splicing fitness (ln) of no less than -2?
rule not met

Could you verify whether the entry CUCGAGCAAUAUUACGCACU shows self-splicing fitness (ln) of no less than -2?
rule not met

Could you verify whether the entry ACAGAGCAAUAUUACGAGCU shows self-splicing fitness (ln) of no less than -2?
rule not met

Could you verify whether the entry CUAGAGCAAUAUUACGCCCG shows self-splicing fitness (ln) of no less than -2?
rule met

Could you verify whether the entry CGGAAGCAAUAUUACGAGUG shows self-splicing fitness (ln) of no less than -2?
rule met

Could you verify whether the entry UCCCAGCAAUAUUACGGCCA shows self-splicing fitness (ln) of no less than -2?
rule met

Could you verify whether the entry AGUGAGCAAUAUUACGUUUG shows self-splicing fitness (ln) of no less than -2?
rule not met

Could you verify whether the entry CAAAAGCAAUAUUACGUCAU shows self-splicing fitness (ln) of no less than -2?
rule not met

Could you verify whether the entry CGUCAGCAAUAUUACGCUAU shows self-splicing fitness (ln) of no less than -2?
rule not met

Could you verify whether the entry AAAGAGCAAUAUUACGUAUU shows self-splicing fitness (ln) of no less than -2?
rule not met

Could you verify whether the entry CCGUAGCAAUAUUACGGAAG shows self-splicing fitness (ln) of no less than -2?
rule met

Could you verify whether the entry GAGGAGCAAUAUUACGGGGA shows self-splicing fitness (ln) of no less than -2?
rule met

Could you verify whether the entry UAUCAGCAAUAUUACGAUCU shows self-splicing fitness (ln) of no less than -2?
rule met

Could you verify whether the entry CCAUAGCAAUAUUACGCCCU shows self-splicing fitness (ln) of no less than -2?
rule not met

Could you verify whether the entry AGUCAGCAAUAUUACGGAGU shows self-splicing fitness (ln) of no less than -2?
rule met

Could you verify whether the entry UAGCAGCAAUAUUACGACGG shows self-splicing fitness (ln) of no less than -2?
rule met

Could you verify whether the entry GAGUAGCAAUAUUACGUACA shows self-splicing fitness (ln) of no less than -2?
rule met

Could you verify whether the entry GUAAAGCAAUAUUACGUCUA shows self-splicing fitness (ln) of no less than -2?
rule met

Could you verify whether the entry GCGUAGCAAUAUUACGCUAG shows self-splicing fitness (ln) of no less than -2?
rule not met

Could you verify whether the entry UUUAAGCAAUAUUACGUUGA shows self-splicing fitness (ln) of no less than -2?
rule not met
